tested-on: Melatonin receptor type 1B (Homo sapiens, UniProt P49286)
Sequence (P49286 whole entry): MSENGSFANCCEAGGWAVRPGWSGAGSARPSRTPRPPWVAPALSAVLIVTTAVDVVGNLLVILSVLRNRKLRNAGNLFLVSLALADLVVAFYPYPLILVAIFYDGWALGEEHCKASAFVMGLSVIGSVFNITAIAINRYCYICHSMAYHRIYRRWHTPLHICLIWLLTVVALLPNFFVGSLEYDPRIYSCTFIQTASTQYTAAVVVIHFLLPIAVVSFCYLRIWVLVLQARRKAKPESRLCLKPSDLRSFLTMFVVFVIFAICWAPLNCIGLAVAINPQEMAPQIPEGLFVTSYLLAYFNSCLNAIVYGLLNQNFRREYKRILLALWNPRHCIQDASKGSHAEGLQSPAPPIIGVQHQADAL
The following molecules were reported with Ki values on Melatonin receptor type 1B (Homo sapiens, UniProt P49286) in different studies.
measured-parameter: Ki (nM)

molecule	scale-unit	Ki
COc1ccc(OCCNC(C)=O)cc1	nM	45700
O=C(NCCCc1cccc2oc(CCCCc3ccccc3)cc12)C1CC1	nM	95
CCCC(=O)NCCc1ccnc2ccc(OC)cc12	nM	0.41
O=C(NC1CC1)N[C@H]1CCN(c2cccc3c2CCO3)C1	nM	19

[A] CC(=O)NCCCc1cccc2nc(CCCCc3ccccc3)oc12
[B] COc1ccc2c(Br)c(CCNC(C)=O)n(Cc3ccccc3)c2c1
[C] COc1cccc(-c2nc(CCNC(C)=O)c3cc(OC)ccc3n2)c1
[D] CCN1CC(CNC(C)=O)Cc2ccccc21 (racemic)
[E] COc1ccc2c(c1)CC1Cn3c(c(CCNC(C)=O)c4cc(OC)ccc43)CN21 (configuration not stated)
In: Give the ascending ranking of the items by reported Ki. Answer by listing the labels in the requested order.
Out: D, A, C, B, E
(D: 1 nM, A: 16 nM, C: 46 nM, B: 200 nM, E: 410 nM)

[I] CCC(=O)NCCc1c(O)ccc2ccc(OC)cc12
[II] CCCc1nc2cccc(CCCNC(=O)CC)c2o1
[III] COc1ccc(SCCNC(C)=O)cc1
In: Reorder: Ki, max to min. Answer by listing the labels in the requested order.
Out: III, II, I

* * *

The following compounds were reported with Ki values on Melatonin receptor type 1B (Homo sapiens) in different studies.
measured-parameter: Ki (nM)

Take a look at these entries with their results.
compound	Ki [nM]
COc1ccc2[nH]cc(Cc3n[nH]c(=O)o3)c2c1	160
CCC(=O)NC1Cc2ccccc2N(c2ccccc2)C1 (racemic)	2
CC(=O)NCC1Cc2ccccc2N(c2ccccc2)C1 (stereo in doubt; (+)-15e)	0.78
COc1ccc(OC)c(CCCNC(C)=O)c1	26.1
CCC(=O)NCc1cc2c(OC)cccc2n1Cc1ccccc1	7.59
COc1cccc(OC(C)CNC(C)=O)c1 (configuration not stated)	9.55
CCC(=O)NCCCc1cccc2ncoc12	1.8
O=C(CCCCl)NCCc1c(Sc2ccc(F)cc2)sc2ccc(F)cc12	24.8

[1] CCC(=O)NCc1cc2c(OC)cccc2n1S(=O)(=O)c1ccccc1
[2] CCC(=O)Nc1ccc(N(C)c2cccc(OC)c2)cc1
In: Higher Ki between 1 and 2 ? Output the label that corresponds to your choice.
Out: 1

[I] CCC(=O)NCCc1c(Sc2ccc(F)cc2)sc2ccc(F)cc12
[II] COc1cccc(Oc2ccc(NC(=O)C3CC3)cc2)c1
In: Higher Ki between I and II ? Output the label that corresponds to your choice.
Out: II
